# System: Wolbachia pipientis
# Procedure Details: Anti-Wolbachia Cell-Based Screen
# Type: functional
# Parameters: scale not given: in the data most compounds retested in dose-response had high values
# Condition Summary: 5 µM
Hit rate of the full screen: of about 48,000 compounds, about 13,000 (27%) showed an effect of 50% or more. This is one part of the list.
Listing of entries alongside the reported Percent Effect.

{"Compound": "COc1ccc2c(c1)CCCN2C(=O)CN1CCOC(CN(C)C)C1 (centres undefined)", "Unit String": "%", "Percent Effect": 3.019}
{"Compound": "COCCNc1ccc(CNC(=O)Nc2cn[nH]c2)cc1", "Unit String": "%", "Percent Effect": -8.085}
{"Compound": "O=C(NCCCN1CCOCC1)c1cc(-c2ccc3c(c2)CCO3)n[nH]1", "Unit String": "%", "Percent Effect": -1.634}
{"Compound": "COc1cc2c(cc1OC)CN(C(=O)NCC1CCCO1)CC2 (centres undefined)", "Unit String": "%", "Percent Effect": 106.4}
{"Compound": "COC1COC2(CCN(S(=O)(=O)c3ccc(F)cc3)CC2)C1 (centres undefined)", "Unit String": "%", "Percent Effect": -4.083}
{"Compound": "O=C(NCc1ccc(Br)c(F)c1)Nc1cn[nH]c1", "Unit String": "%", "Percent Effect": 110.2}
{"Compound": "O=S(=O)(NCCc1nc(-c2cccnc2)n[nH]1)NCc1ccccc1", "Unit String": "%", "Percent Effect": -41.46}
{"Compound": "O=C(NCC1(N2CCOCC2)CCSC1)Nc1cn[nH]c1 (centres undefined)", "Unit String": "%", "Percent Effect": 6.407}
{"Compound": "CCn1cc(CN2CCCCC2CCn2ccnc2C)cc1C#N (centres undefined)", "Unit String": "%", "Percent Effect": -5.966}
{"Compound": "CC(C)[C@@H]1CN(S(=O)(=O)c2cccc(C(=O)O)c2)C[C@H]1N(C)C", "Unit String": "%", "Percent Effect": 0.7097}
{"Compound": "CCC(C)(C)C(=O)NCCCOC1CCOC1 (centres undefined)", "Unit String": "%", "Percent Effect": -11.1}
{"Compound": "C=C(C)COCCNC(=O)N1CCc2c(cccc2OC)C1", "Unit String": "%", "Percent Effect": -14.6}
{"Compound": "COc1cccc(S(=O)(=O)CCN2CCC3(CC2)OCCO3)c1", "Unit String": "%", "Percent Effect": -7.046}
{"Compound": "COc1ccc2c(c1)CCCN2C(=O)CNCC1CN(C)CCO1 (centres undefined)", "Unit String": "%", "Percent Effect": 15.31}
{"Compound": "COc1ccccc1OC1CN(C(=O)Cc2c(C)nc(C)[nH]c2=O)C1", "Unit String": "%", "Percent Effect": -23.21}
{"Compound": "CCCN1CCCn2nc(CNS(=O)(=O)c3cccc(C#N)c3)cc2C1", "Unit String": "%", "Percent Effect": 3.103}
{"Compound": "CCc1ccc(C(=O)NC2CCCN(c3ccn(C)n3)C2=O)o1 (centres undefined)", "Unit String": "%", "Percent Effect": -13.64}
{"Compound": "O=C(Cc1nc(-c2ccncc2)n[nH]1)NCCCN1CCOCC1", "Unit String": "%", "Percent Effect": 108.4}
{"Compound": "CCN1CCNC(=O)C12CCN(S(=O)(=O)c1ccc(OC)cc1)CC2", "Unit String": "%", "Percent Effect": 15.65}
{"Compound": "COc1cccc(S(=O)(=O)N2C[C@@H](N(C)C)[C@H](C(C)C)C2)c1", "Unit String": "%", "Percent Effect": -6.322}
{"Compound": "CCOC1COC2(CCN(S(=O)(=O)c3ccc(F)cc3)CC2)C1 (centres undefined)", "Unit String": "%", "Percent Effect": -48.73}
{"Compound": "CN(Cc1ccccc1CN1CCCC1)C(=O)c1c(O)cccc1O", "Unit String": "%", "Percent Effect": -3.98}
{"Compound": "COCCCC(=O)Nc1[nH]nc(-c2ccncc2)c1C", "Unit String": "%", "Percent Effect": 2.915}
{"Compound": "CN(C)Cc1ccccc1CN(C)C(=O)c1ccoc1", "Unit String": "%", "Percent Effect": 83.07}
{"Compound": "CN1CCC(NC(=O)NCc2csc(Br)c2)CC1", "Unit String": "%", "Percent Effect": -1.868}
{"Compound": "COc1ccc(S(=O)(=O)N2CCCC3(CCCN3S(C)(=O)=O)C2)cc1 (centres undefined)", "Unit String": "%", "Percent Effect": -14.23}
{"Compound": "O=C(Cc1ccc(Br)s1)NCC(=O)Nc1cn[nH]c1", "Unit String": "%", "Percent Effect": -7.073}
{"Compound": "Cc1ccc(-c2cc(N)c(=O)n(C(C)C(=O)NC(C)C)n2)o1 (centres undefined)", "Unit String": "%", "Percent Effect": 115.3}
{"Compound": "CCC(=O)NC1CCN(c2cccc(CC)c2)CC1", "Unit String": "%", "Percent Effect": -2.51}
{"Compound": "CO[C@H]1CN(S(=O)(=O)c2ccc(F)cc2)C[C@@]12CCCO2", "Unit String": "%", "Percent Effect": 187.7}
{"Compound": "Cn1cnnc1SCc1cc2c(cc1Cl)OCO2", "Unit String": "%", "Percent Effect": 116.9}
{"Compound": "COCCCNC(=O)Cc1cc(-c2ccc3c(c2)OCO3)on1", "Unit String": "%", "Percent Effect": 2.22}
{"Compound": "COC(=O)CNC(=O)C(C)Oc1ccccc1C(F)(F)F (centres undefined)", "Unit String": "%", "Percent Effect": -20.43}
{"Compound": "O=C(NCc1ccco1)[C@@]12CCO[C@@H]1CCN(CC1CCOCC1)C2.O=C(O)C(F)(F)F", "Unit String": "%", "Percent Effect": -4.272}

Sourced from ChEMBL document CHEMBL3988442
